Data credit: ChEMBL document CHEMBL3507680

Recorded cytotoxicity at 70.5 h, one value per entry.
- Method Description: Human HepG2 cell viability assay in 384 well format
- Format: toxicity, cell-based
- Parameters: dose 125 nL, time 70.5 hour; concentration not given beside the values
- Reported Conditions: HepG2 cells, read-out: Inhibition
Give the number; % is assumed, so skip it.

Example compounds with recorded cytotoxicity at 70.5 h:
CCN1CC(C(=O)NCCn2cccc2)CCC1=O (stereo unspecified) :: -7.13
c1nc(N2CCN(Cc3nnnn3C3CC3)CC2)c2sccc2n1 :: 2.44
CCN(CC)C(=O)C1CCCN(CC(=O)Nc2c(C)nn(CC)c2C)C1 (stereo unspecified) :: 22.3

Record COC(=O)c1cc(C(=O)N2CCC(C)CC2)n(-c2ccccc2)n1 , field cytotoxicity at 70.5 h: -6.41

Record Cn1cc(CNc2ccc(F)c(N3CCCS3(=O)=O)c2)cn1 , field cytotoxicity at 70.5 h: -1.61

Record Cc1cc(C)cc(C(=O)N2CCN(C(=O)N(C)C)CC2(C)C)c1 , field cytotoxicity at 70.5 h: -0.125

Record CC(C)CCCNC(=O)Nc1ccc(Cl)c(C(N)=O)c1 , field cytotoxicity at 70.5 h: 1.37

* * *

- Method Description: Human HepG2 cell viability assay in 384 well format
- Assay type: toxicity, cell-based
- Parameters: dose 125 nL, time 70.5 hour; concentration not given beside the values
- Reported Conditions: HepG2 cells, read-out: Inhibition
Recorded cytotoxicity at 70.5 h, one value per entry.
Give the number; % is assumed, so skip it.

CCCn1cc(S(=O)(=O)N[C@H]2CN(C(C)=O)C[C@@H]2C2CC2)cn1 :: -1.84

Record CN1[C@H](Cn2cccn2)C[C@@H]2CN(Cc3cccs3)CC[C@@H]21 , field cytotoxicity at 70.5 h: 18.9

Record COc1cccc(C(=O)C2CCCN(c3cc(C#N)ccn3)C2)c1 (stereo unspecified) , field cytotoxicity at 70.5 h: -10.3

Record Cc1cc(Nc2ncccn2)nc(C2CCCN(CCO)C2)n1 (stereo unspecified) , field cytotoxicity at 70.5 h: -9.85

Record CCc1ccc(C(=O)N2CC[C@](C)(O)C(C)(C)C2)[nH]1 , field cytotoxicity at 70.5 h: -3.24

Record Cn1ccnc1N1CCN(C(=O)Cc2ccc(Cl)cc2)CC1 , field cytotoxicity at 70.5 h: -1.94

Record Cc1n[nH]c(C)c1CNc1nc(-c2ccco2)nc2c1CCNCC2 , field cytotoxicity at 70.5 h: 5.99

Record CCc1cc(=O)[nH]c2nnc(SCC(=O)N3CCC(C)CC3)n12 , field cytotoxicity at 70.5 h: 19.7

Record O=C(c1cccc(NCc2cccc(F)c2)c1)N1CCC(O)CC1 , field cytotoxicity at 70.5 h: 10.8

Record O=C(COCC1CC1)Nc1ccn(Cc2cccc3cccnc23)n1 , field cytotoxicity at 70.5 h: -1.28

Record Cc1noc(Cl)c1CC(=O)N1CCCC1Cn1cccn1 (stereo unspecified) , field cytotoxicity at 70.5 h: 2.85

Record CC(c1ccc(F)cc1)N1CCN(Cc2ccc(C#N)cc2)CC1 (stereo unspecified) , field cytotoxicity at 70.5 h: -11.6

Record CCNC(=O)[C@@H]1C[C@@H](N)CN1C(=O)c1cc2ccccc2[nH]1 , field cytotoxicity at 70.5 h: -1.64

Record N#Cc1ccc(CN2CC3(CCCCN3c3cccnc3)CC2=O)cc1 (stereo unspecified) , field cytotoxicity at 70.5 h: 1

* * *

Recorded cytotoxicity at 70.5 h, one value per entry.
- Method Description: Human HepG2 cell viability assay in 384 well format
- Assay type: toxicity, cell-based
- Design: dose 125 nL, time 70.5 hour; concentration not given beside the values
- Reported Conditions: HepG2 cells, read-out: Inhibition
Give the number; % is assumed, so skip it.

Example compounds with recorded cytotoxicity at 70.5 h:
CCc1ncc(CN2CCC(Oc3ccccc3OC)CC2)cn1 :: -0.00137
Cc1c(I)cccc1C(=O)NCC1(CO)CC1 :: -7.8
CNC(=O)c1cc2c(nc1N(C)C)CCN(S(=O)(=O)CC(C)C)CC2 :: -12.2
Cc1cc(-c2nn3c(C4CCC4)nnc3s2)on1 :: -7.88
O=C(c1ccccc1Cl)N1CCN(CCc2ccccn2)CC1 :: -5.74

Now take the following compound into account.
Record Cl.Cl.Clc1cccc(C[C@@H]2NCCC[C@@H]2Nc2cccc(Cl)c2)c1 , field cytotoxicity at 70.5 h: 105

* * *

- Method Description: Human HepG2 cell viability assay in 384 well format
- Format: toxicity, cell-based
- Parameters: dose 125 nL, time 70.5 hour; concentration not given beside the values
- Reported Conditions: HepG2 cells, read-out: Inhibition
Readout Type: cytotoxicity at 70.5 h (%)
Give the number; % is assumed, so skip it.

Example compounds with recorded cytotoxicity at 70.5 h:
CC[C@@H]1N(Cc2ccncc2)CCC[C@]12CCC(=O)N2CCOC :: -4.38
CCN(CC)C(=O)c1nc2c(s1)CCN(Cc1cccc(OC)c1)CC2 :: -11.2

Record O=S1(=O)c2cccnc2OC(Cc2ccccc2)CN1CC1CC1 (centres undefined) , field cytotoxicity at 70.5 h: 1.6

Record COc1cc(C(=O)NCCc2ccc(OC)c(OC)c2)on1 , field cytotoxicity at 70.5 h: -2.98

Record OCCNc1cc(-c2ccccc2)ncn1 , field cytotoxicity at 70.5 h: -1.96

Record Fc1ccc(-c2nc(CNC3CCc4ncnn4C3)cs2)cc1 (centres undefined) , field cytotoxicity at 70.5 h: 0.825

Record CNCC(=O)NC1CC(C)(C)Cc2nc(C(C)(C)C)ncc21 (centres undefined) , field cytotoxicity at 70.5 h: -18.9

Record Cc1nc2sccn2c1CNc1cc(C(=O)O)ccc1F , field cytotoxicity at 70.5 h: -7.72

Record CC(C)(C)CC(=O)N1CSCC1C(=O)NC1=NCCS1 (centres undefined) , field cytotoxicity at 70.5 h: 19.4

Record O=C1C(N2CCN(c3ccccc3Cl)CC2)CCN1C1CCOCC1 (centres undefined) , field cytotoxicity at 70.5 h: -5.64

Record CNC(=O)c1cc(C2CCCN2)n[nH]1 (centres undefined) , field cytotoxicity at 70.5 h: -3.32

* * *

- Method Description: Human HepG2 cell viability assay in 384 well format
- Type: toxicity, cell-based
- Parameters: dose 125 nL, time 70.5 hour; concentration not given beside the values
- Reported Conditions: HepG2 cells, read-out: Inhibition
Recorded cytotoxicity at 70.5 h, one value per entry.
Give the number; % is assumed, so skip it.

Example compounds with recorded cytotoxicity at 70.5 h:
CN1CCCC1c1ccnc2nccn12 (configuration not stated) :: -7.34
COCCN1CC2(CCC1=O)CCN(Cc1nnc(C)o1)CC2 :: -5.52
CC(=O)N1CCc2[nH]nc(C(=O)N3CC=CC3)c2C1 :: 34.9
COCC1CCN(Cc2cc(O)c3c(C)ccc(C)c3n2)CC1 :: 17.7
CC(CCn1cccn1)N1CCC(n2cc(C(C)(C)N)nn2)CC1 (configuration not stated) :: 1.2
CCN(CC)CCn1ccnc1-c1[nH]cnc1C :: 3.84
CC(C)n1cnnc1CN(C)Cc1ccc(CO)o1 :: -22.8
N#Cc1nccnc1NC1CCN(c2ccccc2Br)C1 (configuration not stated) :: 11.1

Record CCc1nc(C)c(C(=O)NCCNc2ncccc2C#N)s1 , field cytotoxicity at 70.5 h: 19.3

Record CNS(=O)(=O)CC(=O)NC(C)Cc1cccc(Cl)c1 (configuration not stated) , field cytotoxicity at 70.5 h: -2.05

Record CC(NC(=O)NCCCN(C(C)C)S(C)(=O)=O)c1ccncc1 (configuration not stated) , field cytotoxicity at 70.5 h: -2.51

Record CC(C)Nc1cccc(C(=O)NCC(O)c2cccc(F)c2)c1 (configuration not stated) , field cytotoxicity at 70.5 h: -6.04

Record CC(CN(C)C)Nc1nc(O)cc(Cc2ccccc2F)n1 (configuration not stated) , field cytotoxicity at 70.5 h: 4.28

Record C[C@@H]1C[C@H]2CN(C(=O)C3=CCCC3)C[C@H]2O1 , field cytotoxicity at 70.5 h: -4.11

Record CCc1nc(C)c(CN2CCOC(Cc3cccc4ccccc34)C2)[nH]1 (configuration not stated) , field cytotoxicity at 70.5 h: -2.51

Record COC1CCN(c2ccc(F)cc2CN(C)C(=O)c2cc[nH]n2)CC1 , field cytotoxicity at 70.5 h: -13.3

* * *

- Method Description: Human HepG2 cell viability assay in 384 well format
- Assay type: toxicity, cell-based
- Parameters: dose 125 nL, time 70.5 hour; concentration not given beside the values
- Reported Conditions: HepG2 cells, read-out: Inhibition
Decision: cytotoxicity at 70.5 h compared against 10%; not below it gives rule met, below it gives rule not met.

Worked set:
O=C(COc1coc(CN2CCCCC2)cc1=O)c1ccccc1 :: rule not met
COc1c(CNCCNC(=O)c2cccs2)c(C)nn1C :: rule not met
COC(=O)c1ccc(-c2ccc(/C=C3\C(=O)NC(=N)N3C)o2)cc1 :: rule met

Ask | Determine whether measured cytotoxicity at 70.5 h meets or exceeds 10% for Cc1cc(C)c2nc(C3CC3)cc(C(=O)N3CCCC3C(N)=O)c2c1 (stereo unspecified)
Reply | rule met

Ask | Determine whether measured cytotoxicity at 70.5 h meets or exceeds 10% for CN(C)c1cc(CNC(=O)c2cccc(F)c2)ccn1
Reply | rule met

Ask | Determine whether measured cytotoxicity at 70.5 h meets or exceeds 10% for CCC1CCCCN1C(=O)c1ccnc(N(C)C)c1 (stereo unspecified)
Reply | rule not met
